# method_summary: compound binding in COS7 lysate, probe aLAP1, primary screen, cell lysate, small-molecule microarray (AID 1124);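 note: lysate comes from COS7 cells expressing LAP1 and is applied at 0.3 µg/mL; score merges spot fluorescence near 667 nm with signal-to-noise over triplicate slides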
# measurement_context: probe aLAP1, fluorescence, higher = more signal
Exercise: state measured composite z-score for each of the compounds provided.

The cases that follow already have their composite z-score on record.
Please give measured composite z-score of the following entry: COC(=O)[C@]1(Cc2ccccc2N=[N+]=[N-])N=C(c2ccc(OCCCO)cc2)O[C@@H]1c1ccccc1CN=[N+]=[N-]
-0.0388

Using the record for C=CCNC(=O)[C@@H]1[C@H]2C(=O)O[C@H](c3ccccc3)[C@H](c3ccccc3)N2[C@H](c2ccc(OCCO)cc2)[C@@]12C(=O)N(C(=O)OCCOC)c1ccccc12 , state its measured composite z-score.
0.67

Given the compound C=CCNC(=O)[C@@H]1[C@H]2C(=O)O[C@H](c3ccccc3)[C@H](c3ccccc3)N2[C@H](c2ccc(O)cc2)[C@@]12C(=O)Nc1ccc(C#CC3=CCCCC3)cc12 , write its reported composite z-score.
1.24

For the compound COc1cc(CO)cc(I)c1O[C@H]1C=C(C(=O)NCCO)C[C@@H](N(CCN2CCOCC2)C(=O)C2CCCO2)[C@@H]1O (some centres not stated) , give its reported composite z-score.
-0.0581

Please give the documented composite z-score of CC(C)[Si](C#Cc1ccccc1)(O[C@H](c1ccccc1)c1cn(Cc2ccccc2)nn1)C(C)C
0.471

Hey, quick one: what's composite z-score for each of these?
1. CC(C)N1C(=O)[C@@]2(Cc3ccccc31)c1ccccc1C(=O)N(Cc1ccccc1C(F)(F)F)[C@H]2c1ccc(CO)cc1
2. COC(=O)[C@H]1N=C(c2ccc(OCCCO)cc2)O[C@H]1c1ccccc1N=[N+]=[N-]

1: 0.739; 2: 0.285

---

# target_or_test_system: NADPH oxidase 4 (Homo sapiens)
# method_summary: NOX4-dependent H2O2 signal modulators, primary screen, NOX inhibitor project, cell-based, HEK293-NOX4, tetracycline-induced, Amplex Red fluorescence (AID 1160)
# measurement_context: 45 min, higher = more signal, called active from +8 up or from −8 down
Active and inactive are the calls of the source.
measured_quantity: z-score

Known results for compounds:
Retrieve z-score measured for O=C1C[C@@](C(=O)NCC(F)(F)F)(c2ccc([N+](=O)[O-])cc2)[C@@H](c2ccc(CO)cc2I)N1CC12CC3CC(CC(C3)C1)C2 and print it.
-0.564 (inactive)

Indicate the recorded z-score value for this compound: C=C(CCCC)C(=O)CC[C@H](OC(=O)c1ccccc1-c1ccccc1C(=O)O)c1cccc(OCCO)c1
-0.462 (inactive)

Identify measured z-score associated with CCCC[C@@H](O)C1=C(C)Cn2c(=O)n(-c3ccccc3)c(=O)n2[C@H]1CO
0.216 (inactive)

// moving on: another record for z-score
Output z-score of COC(=O)[C@@]1(Cc2ccc(OC)cc2)[C@@H]2[C@@H](CC(=O)[C@H]2CC(=O)C(=O)N(C)C)CN1C(=O)c1ccccc1
0.898 (inactive)

---

# method_summary: modulators of S6 phosphorylation in cells, primary screen, cell-based, A549, cytoblot, luminescence, serum-stimulated (AID 1158);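 note: serum-stimulated A549 lung adenocarcinoma cells; signal is phosphorylated S6 detected by cytoblot immunostaining with HRP secondary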
# measurement_context: A549 phospho-S6 cytoblot, 5 h, higher = more signal
Could you label it met if measured z-score is -0.7 or higher, and not met otherwise?

Sample answers from the record:
Hello, I need to know if CCCCN1CC=CC23O[C@@H]4/C=C\CCCOC(=O)C4[C@H]2C(=O)N(CCCCCCO)[C@@H]3C1=O (stereo partly drawn) has measured z-score not below -0.7. Thanks!
met

# check: z-score of C[C@@]1([C@@H](NS(=O)(=O)c2cccc3cccnc23)c2ccc(-c3ccccc3)cc2)C[C@H]1C1CCCCC1 is greater than or equal to -0.7
not met

// inclusive: z-score at least -0.7? input: COC(=O)[C@@]1(Cc2ccc(F)cc2)[C@@H]2C(=CC(=O)[C@H]2CC(=O)C(=O)N2CCCC2)CN1C(=O)c1ccccc1
met

Does Cc1ccc(S(=O)(=O)N2[C@@H](c3ccccc3)C(C(=O)O)=C[C@H]2C(C)(C)C)cc1 have a reported z-score of at least -0.7?
met

Quick check, z-score >= -0.7? CN1C(=O)C2C=CC(C(O)COCc3ccccc3)N(Nc3ccc([N+](=O)[O-])cc3[N+](=O)[O-])C2C1=O (stereo not drawn)
not met

Next:
Reported z-score reaches at least -0.7 for O=C1NC(=O)C2C1C=CC(C(O)C1CCCCC1)N2Nc1ccccn1 (stereo not drawn) ?
met

Does the reported z-score for CC(C)[Si]1(C(C)C)OCc2cc(-c3ccc(-c4ccc(Cl)c(Cl)c4)o3)nc(-c3ccc(Oc4ccccc4)cc3)c21 fall at or above the -0.7 mark?
met
